target: mouse Tas2r108 (Mus musculus); construct: expressed in transfected cells; host or cells: HEK293T-Gα16gust44; test: Calcium imaging assay (FLIPR), HEK293T-Gα16gust44 cells transfected with mouse Tas2r108; format: cell-based; conditions: Time 317.562 s
Endpoint: RLU (RLU)

Structure smiles	Observed
C[C@H](CCC(=O)NCC(=O)O)[C@H]1CC[C@H]2[C@@H]3[C@H](O)C[C@@H]4C[C@H](O)CC[C@]4(C)[C@H]3C[C@H](O)[C@]12C	150.371
C[C@H](CCC(=O)NCCS(=O)(=O)O)[C@H]1CC[C@H]2[C@@H]3[C@H](O)C[C@@H]4C[C@H](O)CC[C@]4(C)[C@H]3C[C@H](O)[C@]12C	265.787
C[C@H](CCC(=O)O)[C@H]1CC[C@H]2[C@@H]3CC[C@@H]4C[C@H](O)CC[C@]4(C)[C@H]3C[C@H](O)[C@]12C	450.794
C[C@H](CCC(=O)O)[C@H]1CC[C@H]2[C@@H]3[C@H](O)C[C@@H]4C[C@H](O)CC[C@]4(C)[C@H]3C[C@H](O)[C@]12C	162.782

###

Reported RLU, fluorescence trace values follow for various molecules
Target: human TAS2R4 (Homo sapiens)
Construct: expressed in transfected cells; host or cells: HEK293T-Gα16gust44
Sequence (Q9NYW5 1-299): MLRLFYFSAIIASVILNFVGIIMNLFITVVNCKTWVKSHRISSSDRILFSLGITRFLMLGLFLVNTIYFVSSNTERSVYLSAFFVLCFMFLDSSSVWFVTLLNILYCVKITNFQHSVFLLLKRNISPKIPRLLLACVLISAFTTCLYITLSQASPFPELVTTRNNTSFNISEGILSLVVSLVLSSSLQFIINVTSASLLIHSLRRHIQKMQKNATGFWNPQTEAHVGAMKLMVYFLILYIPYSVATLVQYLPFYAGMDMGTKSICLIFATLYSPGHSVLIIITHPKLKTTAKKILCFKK
Experiment: Calcium imaging assay (FLIPR), HEK293T-Gα16gust44 cells transfected with human TAS2R4; also: test concentration or dose not given here
Assay type: cell-based
Conditions: Time (s) 110.781 (TCA, TLCA: 110.782)

Molecule	RLU, fluorescence trace, RLU
C[C@H](CCC(=O)NCCS(=O)(=O)O)[C@H]1CC[C@H]2[C@@H]3CC[C@@H]4C[C@H](O)CC[C@]4(C)[C@H]3CC[C@]12C [Taurolithocholic Acid, taurolithocholic acid]	253.834
C[C@H](CCC(=O)O)[C@H]1CC[C@H]2[C@@H]3[C@H](O)C[C@@H]4C[C@H](O)CC[C@]4(C)[C@H]3C[C@H](O)[C@]12C [Cholic Acid, cholic acid]	539.61
C[C@H](CCC(=O)NCC(=O)O)[C@H]1CC[C@H]2[C@@H]3[C@H](O)C[C@@H]4C[C@H](O)CC[C@]4(C)[C@H]3C[C@H](O)[C@]12C [Glycocholic Acid, glycocholic acid]	598.289

###

target: mouse Tas2r108 (Mus musculus, UniProt Q9JKT3); construct: expressed in transfected cells; host or cells: HEK293T-Gα16gust44; experiment: Calcium imaging assay (FLIPR), HEK293T-Gα16gust44 cells transfected with mouse Tas2r108; type: cell-based; details: Time 335.562 s
Sequence (Q9JKT3 whole entry): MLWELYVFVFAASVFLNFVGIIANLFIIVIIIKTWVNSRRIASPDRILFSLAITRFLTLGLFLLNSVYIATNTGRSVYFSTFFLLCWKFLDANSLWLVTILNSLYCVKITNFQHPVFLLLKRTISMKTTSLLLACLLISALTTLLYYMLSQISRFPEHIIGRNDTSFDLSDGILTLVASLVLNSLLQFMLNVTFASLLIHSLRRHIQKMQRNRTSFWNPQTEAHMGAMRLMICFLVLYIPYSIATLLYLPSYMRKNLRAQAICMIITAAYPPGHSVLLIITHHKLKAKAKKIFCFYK
Reported RLU values follow for various molecules

Molecule	System under test	RLU
C[C@H](CCC(=O)O)[C@H]1CC[C@H]2[C@@H]3[C@H](O)C[C@@H]4C[C@H](O)CC[C@]4(C)[C@H]3C[C@H](O)[C@]12C [Cholic Acid, cholic acid]	mouse Tas2r108 (Mus musculus, UniProt Q9JKT3)	195.196 RLU
C[C@H](CCC(=O)NCC(=O)O)[C@H]1CC[C@H]2[C@@H]3[C@H](O)C[C@@H]4C[C@H](O)CC[C@]4(C)[C@H]3C[C@H](O)[C@]12C [Glycocholic Acid, glycocholic acid]	mouse Tas2r108 (Mus musculus, UniProt Q9JKT3)	172.597 RLU
C[C@H](CCC(=O)O)[C@H]1CC[C@H]2[C@@H]3CC[C@@H]4C[C@H](O)CC[C@]4(C)[C@H]3C[C@H](O)[C@]12C [Deoxycholic Acid, deoxycholic acid]	mouse Tas2r108 (Mus musculus, UniProt Q9JKT3)	432.3 RLU
C[C@H](CCC(=O)NCCS(=O)(=O)O)[C@H]1CC[C@H]2[C@@H]3[C@H](O)C[C@@H]4C[C@H](O)CC[C@]4(C)[C@H]3C[C@H](O)[C@]12C [Taurocholic Acid, taurocholic acid]	mouse Tas2r108 (Mus musculus, UniProt Q9JKT3)	247.117 RLU

###

Reported RLU values follow for various molecules
Target: human TAS2R1 (Homo sapiens)
Construct: expressed in transfected cells; host or cells: HEK293T-Gα16gust44
Sequence (Q9NYW7 1-299): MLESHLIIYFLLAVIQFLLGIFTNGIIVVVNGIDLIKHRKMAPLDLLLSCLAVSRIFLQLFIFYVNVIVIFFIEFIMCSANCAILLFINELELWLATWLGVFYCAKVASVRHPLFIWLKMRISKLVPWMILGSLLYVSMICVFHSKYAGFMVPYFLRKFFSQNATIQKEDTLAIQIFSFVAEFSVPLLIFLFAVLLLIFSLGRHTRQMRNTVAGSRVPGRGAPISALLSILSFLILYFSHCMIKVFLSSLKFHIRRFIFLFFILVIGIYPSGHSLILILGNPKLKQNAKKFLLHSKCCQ
Experiment: Calcium imaging assay (FLIPR), HEK293T-Gα16gust44 cells transfected with human TAS2R1
Type: cell-based
Conditions: Time 24.781 s

Structure smiles	RLU [RLU]
C[C@H](CCC(=O)NCCS(=O)(=O)O)[C@H]1CC[C@H]2[C@@H]3CC[C@@H]4C[C@H](O)CC[C@]4(C)[C@H]3CC[C@]12C	-21.8293
C[C@H](CCC(=O)NCC(=O)O)[C@H]1CC[C@H]2[C@@H]3[C@H](O)C[C@@H]4C[C@H](O)CC[C@]4(C)[C@H]3C[C@H](O)[C@]12C	49.9011
C[C@H](CCC(=O)O)[C@H]1CC[C@H]2[C@@H]3CC[C@@H]4C[C@H](O)CC[C@]4(C)[C@H]3C[C@H](O)[C@]12C	-3.248
C[C@H](CCC(=O)NCCS(=O)(=O)O)[C@H]1CC[C@H]2[C@@H]3[C@H](O)C[C@@H]4C[C@H](O)CC[C@]4(C)[C@H]3C[C@H](O)[C@]12C	100.781

###

Molecular target: human TAS2R4 (Homo sapiens, UniProt Q9NYW5)
Construct: expressed in transfected cells; host or cells: HEK293T-Gα16gust44
Sequence (Q9NYW5 1-299): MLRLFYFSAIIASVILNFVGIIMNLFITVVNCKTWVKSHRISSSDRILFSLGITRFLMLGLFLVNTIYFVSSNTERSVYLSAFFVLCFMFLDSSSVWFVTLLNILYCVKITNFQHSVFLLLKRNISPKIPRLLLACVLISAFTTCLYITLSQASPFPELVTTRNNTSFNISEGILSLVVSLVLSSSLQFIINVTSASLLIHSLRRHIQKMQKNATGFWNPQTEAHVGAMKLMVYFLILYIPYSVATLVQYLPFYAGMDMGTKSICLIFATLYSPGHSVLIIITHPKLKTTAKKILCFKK
Assay: Calcium imaging assay (FLIPR), HEK293T-Gα16gust44 cells transfected with human TAS2R4; also: test concentration or dose not given here
Assay type: cell-based
Settings: Time (s) 74.781 (TCA, TLCA: 74.782)
Endpoint: RLU, fluorescence trace (RLU)

Compound	System under test	Unit string	Observed
C[C@H](CCC(=O)NCCS(=O)(=O)O)[C@H]1CC[C@H]2[C@@H]3[C@H](O)C[C@@H]4C[C@H](O)CC[C@]4(C)[C@H]3C[C@H](O)[C@]12C [Taurocholic Acid, taurocholic acid]	human TAS2R4 (Homo sapiens, UniProt Q9NYW5)	RLU	657.793
C[C@H](CCC(=O)O)[C@H]1CC[C@H]2[C@@H]3CC[C@@H]4C[C@H](O)CC[C@]4(C)[C@H]3C[C@H](O)[C@]12C [Deoxycholic Acid, deoxycholic acid]	human TAS2R4 (Homo sapiens, UniProt Q9NYW5)	RLU	395.575
C[C@H](CCC(=O)NCC(=O)O)[C@H]1CC[C@H]2[C@@H]3[C@H](O)C[C@@H]4C[C@H](O)CC[C@]4(C)[C@H]3C[C@H](O)[C@]12C [Glycocholic Acid, glycocholic acid]	human TAS2R4 (Homo sapiens, UniProt Q9NYW5)	RLU	833.342
C[C@H](CCC(=O)NCCS(=O)(=O)O)[C@H]1CC[C@H]2[C@@H]3CC[C@@H]4C[C@H](O)CC[C@]4(C)[C@H]3CC[C@]12C [Taurolithocholic Acid, taurolithocholic acid]	human TAS2R4 (Homo sapiens, UniProt Q9NYW5)	RLU	290.176
C[C@H](CCC(=O)O)[C@H]1CC[C@H]2[C@@H]3[C@H](O)C[C@@H]4C[C@H](O)CC[C@]4(C)[C@H]3C[C@H](O)[C@]12C [Cholic Acid, cholic acid]	human TAS2R4 (Homo sapiens, UniProt Q9NYW5)	RLU	687.298
C[C@H](CCC(=O)O)[C@H]1CC[C@H]2[C@@H]3[C@@H](O)C[C@@H]4C[C@H](O)CC[C@]4(C)[C@H]3CC[C@]12C [Ursodeoxycholic Acid, ursodeoxycholic acid]	human TAS2R4 (Homo sapiens, UniProt Q9NYW5)	RLU	367.247
